Tested on: ANGIOTENSIN II VASOPRESSOR RESPONSE
Assay: AII Challenge: blockade of angiotensin II vasopressor response in conscious SHR
Assay type: in vivo, rat (Conscious Male Okamoto-Aoki SHR)
Conditions: SHR n=2; 3 mg/kg i.v.; AII 0.1 mcg/kg IV; 90 min post dose
Recorded Average Change (systolic blood pressure response to AII) for the following molecules
Numeric answer only, unit mmHg assumed.

Please review the entries below; each comes with its answer.
{"molecule": "CCCCc1nc2ccc(C(OC)C3CCCO3)cc2c(=O)n1Cc1ccc(-c2ccccc2-c2nn[nH]n2)cc1 (single isomer, unassigned) [Example 24]", "result-number": 5}
{"molecule": "CCCCc1nc2ccc(C(C)(O)C3CCN(C)C3=O)cc2c(=O)n1Cc1ccc(-c2ccccc2-c2nn[nH]n2)cc1 (single isomer, unassigned; isomer 1) [Example 47]", "result-number": 10}

// next entry
[Q] Give ANGIOTENSIN II VASOPRESSOR RESPONSE Average Change (systolic blood pressure response to AII) for CCCCc1nc2ccc(C(C)(O)C3CCN(C)C3=O)cc2c(=O)n1Cc1ccc(-c2ccccc2-c2nn[nH]n2)cc1 (single isomer, unassigned; isomer 2) [Example 48]
[A] 2.5
